List of inhibition at 10 µM values.
- System: EKVX
- protocol details: NCI one-dose SRB anti-proliferative screen
- Type: cell-based
- particulars: Homo sapiens; EKVX (Non-Small Cell Lung Cancer), NCI one dose 10 µM; read-out: Cell growth inhibition %
measured attribute: inhibition at 10 µM

{"query smiles": "COc1ccc(-c2nc3cc(-c4nnc(SCC(=O)Nc5ccc(C(=O)/C=C/c6ccccc6)cc5)o4)ccc3[nH]2)cc1OC", "result": "0%"}
{"query smiles": "COc1ccc(/C=C/C(=O)c2ccc(NC(=O)CSc3nnc(-c4ccc5[nH]c(-c6ccc(OC)c(OC)c6)nc5c4)o3)cc2)cc1", "result": "3.51%"}
{"query smiles": "COc1ccc(/C=C/C(=O)c2ccc(NC(=O)CSc3nnc(-c4ccc5[nH]c(-c6ccc(Cl)cc6)nc5c4)o3)cc2)cc1", "result": "0%"}

Value source: paper PMC10504751
